The reported numbers originate from patent US20150164910A1.

Test system: eGFP-expressing recombinant CVB3
Format: cell-based, coxsackievirus B3
Measurement parameters: eGFP-CVB3 m.o.i=1, compound added at time of infection, 6 hr post infection; 1-(% eGFP+ cells with compound/% with DMSO only)
Measured parameter: Inhibition of infected cells (%)
The figure you give is taken to be in %; do not add the unit.

Some entries whose results are on file:
[[record]]
compound = "Nc1nnc(SCc2nc3cc(Cl)ccc3n2Cc2ccccc2)s1"
result_unit = "%"
value_observed = 91.3

[[record]]
compound = "c1ccc2[nH]c(CN3CCCC3)nc2c1"
result_unit = "%"
value_observed = 100


Lab book: Inhibition of infected cells of Cl.O[C@@H]1[C@@H](O)C=C2CCN3Cc4cc5c(cc4[C@H]1C23)OCO5 (stereo partly drawn) [Compound 73, reference compound] noted as 100

Lab book: Inhibition of infected cells of `COc1ccc(-c2csc3ncn(CC(=O)c4ccc5c(c4)OCO5)c(=O)c23)cc1OC` noted as 87.6

Lab book: Inhibition of infected cells of `O=C(N/N=C/c1ccc(O)cc1)c1cc(-c2ccccc2)nc2ccccc12` noted as 100

Lab book: Inhibition of infected cells of `CCn1ncc2c(C(=O)Nc3ccc(C#N)cc3)cc(-c3cccs3)nc21` noted as 99.6

----------
Below, each entry is listed alongside its reported Inhibition of infected cells.
Tested on: eGFP-expressing recombinant CVB3
Format: cell-based, coxsackievirus B3
Measurement parameters: eGFP-CVB3 m.o.i=1, compound added at time of infection, 6 hr post infection; 1-(% eGFP+ cells with compound/% with DMSO only)
The figure you give is taken to be in %; do not add the unit.

[[record]]
smiles_record = "O=C(c1ccc2c(c1)OCCO2)C1CCN(C(=O)c2ccc(-n3cccn3)cc2)CC1"
measured_parameter = "Inhibition of infected cells"
value_observed = 82.6

[[record]]
smiles_record = "COc1ccc(N(Cc2ccc(F)cc2)C(=O)c2ccco2)cc1"
measured_parameter = "Inhibition of infected cells"
value_observed = 99.7

[[record]]
smiles_record = "COc1ccc(-c2nc3cnccn3c2NCc2ccc(C)cc2)cc1CO"
measured_parameter = "Inhibition of infected cells"
value_observed = 75.2

[[record]]
smiles_record = "CCS(=O)(=O)c1ccc(NC(=O)c2cc(-c3ccccc3)nc3ccccc23)cc1"
measured_parameter = "Inhibition of infected cells"
value_observed = 89.6

[[record]]
smiles_record = "Cc1ccc(NC(=O)c2cc(-c3cccs3)nc3c2cnn3C(C)C)c(F)c1"
measured_parameter = "Inhibition of infected cells"
value_observed = 99.3

[[record]]
smiles_record = "Br.COc1ccc(C(=O)Cn2c(=N)n(Cc3ccc(C)cc3)c3ccccc32)cc1"
measured_parameter = "Inhibition of infected cells"
value_observed = 100

[[record]]
smiles_record = "C#CCSc1nc2ccccc2c(=O)n1Cc1ccccc1"
measured_parameter = "Inhibition of infected cells"
value_observed = 100

[[record]]
smiles_record = "Cc1ccc(NC(=O)c2cc(C3CC3)nc3c2cnn3C(C)C)cc1S(N)(=O)=O"
measured_parameter = "Inhibition of infected cells"
value_observed = 99.6


We now examine a further molecule.
Lab book: Inhibition of infected cells of `CCCSc1nc2ccccc2c(=O)n1Cc1ccccc1` noted as 100

----------
System: eGFP-expressing recombinant CVB3
Type: cell-based, coxsackievirus B3
Measurement parameters: compound added 0 hr post infection at its peak activity concentration; read 6 hr post infection; DMSO 26.0
Below, each entry is listed alongside its reported % of eGFP + cells, 0 Hr.
The figure you give is taken to be in %; do not add the unit.

Some entries whose results are on file:
[[record]]
compound = "N#Cc1ccc(OCc2nc3ccccc3n2-c2ccccc2)cc1"
result_unit = "%"
value_observed = 0.0

[[record]]
compound = "COc1ccc(C(=O)N2CCC(C(=O)c3ccc4c(c3)OCCO4)CC2)cc1F"
result_unit = "%"
value_observed = 8.9


We now examine a further compound.
Measured % of eGFP + cells, 0 Hr for this entry CN1c2ccccc2C(=O)NC1c1cc2ccccc2nc1N1CCOCC1 (stereo not drawn) on eGFP-expressing recombinant CVB3: 0.1
